Target: Beta-1 adrenergic receptor (Homo sapiens, UniProt P08588)
Sequence (P08588 whole entry): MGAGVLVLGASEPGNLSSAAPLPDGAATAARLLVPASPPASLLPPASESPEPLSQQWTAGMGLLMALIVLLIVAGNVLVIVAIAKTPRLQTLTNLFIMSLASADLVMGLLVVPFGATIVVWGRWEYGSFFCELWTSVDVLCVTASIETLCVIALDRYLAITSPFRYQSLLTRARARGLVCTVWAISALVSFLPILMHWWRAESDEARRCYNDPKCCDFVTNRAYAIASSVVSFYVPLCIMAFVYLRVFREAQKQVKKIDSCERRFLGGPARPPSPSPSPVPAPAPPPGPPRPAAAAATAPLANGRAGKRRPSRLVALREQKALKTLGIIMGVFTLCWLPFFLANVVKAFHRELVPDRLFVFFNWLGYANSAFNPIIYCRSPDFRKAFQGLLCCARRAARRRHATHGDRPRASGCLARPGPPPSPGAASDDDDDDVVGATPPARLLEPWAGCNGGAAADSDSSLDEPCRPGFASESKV
valueType: Kd (nM)
Numbers only, in nM.

Exercise: Bench note: what Kd did CNCC(O)c1ccc(O)c2nc(O)sc12 (stereo unspecified) show?
Solution: 120

* * *

Biological target: Beta-2 adrenergic receptor (Homo sapiens)
Sequence (P07550 whole entry): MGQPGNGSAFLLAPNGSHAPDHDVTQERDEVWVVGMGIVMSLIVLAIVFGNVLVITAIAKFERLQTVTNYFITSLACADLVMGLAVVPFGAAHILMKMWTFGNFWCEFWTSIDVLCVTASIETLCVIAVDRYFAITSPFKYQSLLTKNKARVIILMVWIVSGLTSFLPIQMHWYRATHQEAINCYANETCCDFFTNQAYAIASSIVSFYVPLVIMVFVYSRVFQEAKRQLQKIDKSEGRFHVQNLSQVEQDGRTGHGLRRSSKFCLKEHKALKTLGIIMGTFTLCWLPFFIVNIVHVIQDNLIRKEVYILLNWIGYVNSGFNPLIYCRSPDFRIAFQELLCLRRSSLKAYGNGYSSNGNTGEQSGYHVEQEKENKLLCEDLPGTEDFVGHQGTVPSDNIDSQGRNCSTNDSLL
valueType: Kd (µM)
One number for each entry, in µM.

Exercise: Bench note: what Kd did CNCC(O)c1ccc(O)c2nc(O)sc12 (stereo unspecified) show?
Solution: 0.051
